# Test system: SK-MEL-28 melanoma
# run description: NCI tumour cell line growth inhibition, 48 h
Where a SMILES comes first, the peptide text is derived from it. [ ]: non-standard residue; d: D form. The star is where a group is joined. X28 = COC1=CC(=O)N(C(=O)[C@@H](O*)C(C)C)[C@H]1Cc1ccccc1; NMeV = CN[C@H](C(=O)O)C(C)C; Hexanoyl = CCCCCC(=O)*
property label: TGI

compound	result
Cc1c(/C=N/NC(=O)c2cc(Br)cc(Br)c2O)c(=O)n(-c2ccccc2)n1C	49.8 µM
S=c1sc2c(s1)SCCCCSCCCCSc1sc(=S)sc1SCCCCSCCCCS2	> 100 µM
O=C(CCCN1CCC2(CC1)OC(=O)N(c1ccccc1)C2=O)c1ccccc1	> 100 µM
CC1CNc2ccccc2N=C1NN (stereo not given)	> 100 µM
CCCCCCCCCCCC(=O)Oc1c(Cl)cc(Cl)c(OC(=O)C(=O)Oc2c(Cl)cc(Cl)c(OC(=O)CCCCCCCCCCC)c2Cl)c1Cl	> 100 µM
C=CCOc1cccc(/C=C2\SC(=Nc3ccc(O)cc3)NC2=O)c1	31.2 µM
CCCCCC(=O)N[C@H](C(=O)N[C@H](C(=O)N(C)[C@H](C(=O)N1CCC[C@H]1C(=O)N1CCC[C@H]1C(=O)O[C@H](C(=O)N1C(=O)C=C(OC)[C@@H]1Cc1ccccc1)C(C)C)C(C)C)C(C)C)C(C)C (Hexanoyl-VV[NMeV]PP-X28)	> 100 µM
C[C@]12CC[C@@H]3c4ccc(OP(=O)(O)O)cc4CC[C@H]3[C@@H]1CCC2=O	> 100 µM
O=C(C1OC1c1ccc(O)cc1)C12CC3CC(CC(C3)C1)C2 (stereo not given)	> 100 µM
COc1ccc(-c2n/c(=C\c3c(O)[nH]c4ccc(OC)cc34)cc3c2=Nc2ccccc2-3)cc1	3.32 µM

* * *

# System: HOP-62 NSCLC
# run description: NCI tumour cell line growth inhibition, 48 h; in the data active means GI50 below about 0.43 µM; inactive means the rest
Outcomes: True (active), False (inactive)

compound	group label
O=c1cc(-c2ccccc2)[nH]c2ccccc12	False
COC(C(=O)[O][Ge]([CH3])([CH3])[CH3])c1ccccc1 (centres undefined)	False
Oc1cccc2ccc(N/N=C/c3cc(CN4CCCCC4)c(O)c4ncccc34)nc12	True
COC(=O)[C@H](C[C@H](Cc1ccccc1)NC(=O)c1csc([C@@H](C[C@H](C(C)C)N(C)C(=O)[C@@H](NC(=O)[C@H]2CCCCN2C)C(C)C)OC(C)=O)n1)NC(=O)OCc1ccccc1	True
CC1(C)CC(=O)c2c(C(F)(F)F)nn(-c3ccc(C(N)=O)c(NC4CCC(OC(=O)CN)CC4)c3)c2C1 (centres undefined)	True
CC#C[C@]1(O)CC[C@H]2[C@@H]3CCC4=CC(=O)CCC4=C3[C@@H](c3ccc4c(c3)OCO4)C[C@@]21C	False
CC[C@@H](C(=O)O)C1CC[C@H](C)C([C@@H](C)[C@H](O)[C@H](C)C(=O)[C@H](CC)C2O[C@]3(C=C[C@@H](O)[C@]4(CC[C@@](C)(C5CC[C@](O)(CC)[C@H](C)O5)O4)O3)[C@H](C)C[C@@H]2C)O1 (some centres undefined)	False
COc1ccc(-c2nn3c(-c4cc(F)c(Cl)cc4Cl)nnc3s2)cc1	False
C=CCC[CH2][Sn]([c]1ccccc1)([c]1ccccc1)[c]1ccccc1	False
